target: furin, P09958; assay: furin cleavage Z-score vs untreated control; higher = more cleavage, active = 3.5 or more, inactive = 1 or less, 8 variable residues between constant flanks; conditions: 7.5 min;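 note: purified furin at 1:10 enzyme:substrate in 50 mM HEPES pH 7.5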
Sequence (P09958 whole entry): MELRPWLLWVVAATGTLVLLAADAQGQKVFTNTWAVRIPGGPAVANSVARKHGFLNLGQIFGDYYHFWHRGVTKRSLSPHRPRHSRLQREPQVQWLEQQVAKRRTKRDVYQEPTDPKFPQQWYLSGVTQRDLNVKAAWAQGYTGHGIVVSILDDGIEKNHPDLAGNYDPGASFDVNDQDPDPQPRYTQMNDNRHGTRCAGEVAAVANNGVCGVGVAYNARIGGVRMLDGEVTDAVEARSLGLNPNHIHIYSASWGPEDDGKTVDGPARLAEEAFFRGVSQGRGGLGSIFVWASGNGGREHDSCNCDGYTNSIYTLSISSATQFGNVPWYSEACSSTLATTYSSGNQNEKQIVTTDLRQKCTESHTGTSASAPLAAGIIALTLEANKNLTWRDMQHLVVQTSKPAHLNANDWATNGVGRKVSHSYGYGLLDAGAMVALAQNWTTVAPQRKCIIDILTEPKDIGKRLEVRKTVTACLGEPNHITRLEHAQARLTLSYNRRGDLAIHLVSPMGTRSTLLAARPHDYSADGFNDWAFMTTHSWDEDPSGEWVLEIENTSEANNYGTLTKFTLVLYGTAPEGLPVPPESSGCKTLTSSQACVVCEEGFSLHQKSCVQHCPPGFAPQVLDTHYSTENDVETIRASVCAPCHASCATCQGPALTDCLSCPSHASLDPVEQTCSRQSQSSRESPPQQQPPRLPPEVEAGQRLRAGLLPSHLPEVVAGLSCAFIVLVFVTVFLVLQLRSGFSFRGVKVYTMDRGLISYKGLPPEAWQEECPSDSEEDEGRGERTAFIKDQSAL
Some of the results follow. How many sequences the whole screen found active is unknown.
Output constraint: value belongs to active, inactive

{"Query Sequence": "CATTQWQVLPAGNASASA [HC495]", "Class": "inactive"}

Problem: Per the records of this test, what outcome belongs to CARIARVVLQAGNASASA [FS-2028] ?
Solution: inactive

Problem: Per the records of this test, what outcome belongs to CARQGRGSDPAGNASASA [FS-2583] ?
Solution: inactive

Problem: Per the records of this test, what outcome belongs to CARVRRHSDPAGNASASA [FS-2406] ?
Solution: active
